System: HOP-62
measurement protocol: NCI tumour cell line growth inhibition, 48 h
Calls of active or inactive are those of the source. No stated cut-off is given here; in the data, active = GI50 up to about 1.1 µM and inactive = higher.
Exercise: state measured GI50 for each of the compounds provided.

// query GI50 value for entry CC(SC(=S)N1CCCC1)C(=O)Nc1nnc(-c2ccc(Cl)cc2)o1 (stereo not drawn)
34.1 µM (inactive)

// query GI50 value for entry COc1ccc(Nc2nc(N)c(C(=O)c3ccco3)s2)cc1
> 63.8 µM (inactive)

// query GI50 value for entry O=c1oc2c(Cl)cc(Cl)cc2cc1C1=CSC2=NCCN12
38.8 µM (inactive)

// query GI50 value for entry O=C(Nc1sccc1S(=O)(=O)c1ccc(Cl)cc1)c1ccccc1
87.9 µM (inactive)

// query GI50 value for entry Clc1cccc(C2N3CCCCC3[C@@H]3c4[nH]c5ccccc5c4CCN23)c1 (stereo partly drawn)
46.9 µM (inactive)

// query GI50 value for entry O=S(=O)(CCC[C@H]1[C@@H](CCOCc2ccccc2)C2CCCN1O2)c1ccccc1 (stereo partly drawn)
> 100 µM (inactive)

// query GI50 value for entry O=C(O)CCCNc1ncc2c(n1)-c1ccccc1OC2
> 100 µM (inactive)

// query GI50 value for entry Cc1cccc(NC(=S)Nc2ccc(Cl)cc2)n1
> 100 µM (inactive)

// query GI50 value for entry CN(C)CC[N+](C)(C)[BH2-]C(O)O
> 100 µM (inactive)

// query GI50 value for entry CSc1ccc(/C=C2\CN(C)C/C(=C\c3ccc(SC)cc3)C2=O)cc1
> 100 µM (inactive)

// query GI50 value for entry COc1cc(C2CC(C)(Nc3ccccc3)Oc3cc4c(cc32)OCO4)cc(OC)c1OC (stereo not drawn)
0.192 µM (active)

// query GI50 value for entry CCOC(=O)/C(=C\c1ccccc1)C(=O)CCN1CCOCC1
21 µM (inactive)

// query GI50 value for entry O=C(Nc1cc(Cl)c(I)c(Cl)c1)C(F)(F)F
31.2 µM (inactive)

// query GI50 value for entry CCC1([N+](=O)[O-])CC2C=CC1C2 (stereo not drawn)
> 100 µM (inactive)

// query GI50 value for entry c1ccc2c(c1)[nH]c1c2nc2ncccn21
> 100 µM (inactive)

// query GI50 value for entry O=C(/C=C/c1ccc([N+](=O)[O-])cc1)N1CCN(CCOC(c2ccc(F)cc2)c2ccc(F)cc2)CC1
> 100 µM (inactive)

// query GI50 value for entry Cc1coc2c1C(OC(=O)C(C)C)C1(C)C(C)CCC(O)C1C2=O (stereo not drawn)
> 100 µM (inactive)

// query GI50 value for entry COc1cc(Br)c(/C=N\c2cccc3cc(OC)c(OC)cc23)cc1OC
> 100 µM (inactive)

// query GI50 value for entry Cc1cc(O)c(C=O)c(C)c1CCC1(C)C=Cc2cc(O)ccc2O1 (stereo not drawn)
20 µM (inactive)

// query GI50 value for entry O=C1/C(=C/c2ccc([N+](=O)[O-])cc2)CNC/C1=C\c1ccc([N+](=O)[O-])cc1
4.55 µM (inactive)

// query GI50 value for entry CN1CN(c2ccccc2)C2(CCN(CCc3csc4ccccc34)CC2)C1=O
12.2 µM (inactive)

// query GI50 value for entry O=C(O)Cc1nc[nH]c1C(=O)O
> 100 µM (inactive)

// query GI50 value for entry O=C1CC(O)c2c(Br)sc(Br)c21 (stereo not drawn)
10.6 µM (inactive)

---

Tested on: HL-60
measurement protocol: NCI tumour cell line growth inhibition, 48 h
The source made the active and inactive calls. Cut-off read from the data, not from the text of the source: active = GI50 up to about 1.1 µM and inactive = higher.
Exercise: state measured GI50 for each of the molecules provided.

// query GI50 value for entry CC(C)(C)C1CCC2c3c([nH]c4ccccc34)C3C(=O)N(c4ccccc4[N+](=O)[O-])C(=O)C3C2C1 (centres undefined)
11.7 µM (inactive)

// query GI50 value for entry CCOC(=O)CCC(NC(=O)c1ccc(Nc2nc3ccccc3nc2C(=O)OCC)cc1)C(=O)OCC (centres undefined)
> 100 µM (inactive)

// query GI50 value for entry COC(=O)C1[C@H](c2ccc3c(c2)OCO3)OC(=O)[C@]1(C(=O)OC)C(=O)c1ccc(OC)c(OC)c1 (some centres undefined)
25.2 µM (inactive)

// query GI50 value for entry CN(C)c1c(Cl)c(=O)oc2c1ccc1nc(-c3ccccc3)sc12
> 100 µM (inactive)

// query GI50 value for entry C=CCC1(Sc2ccccn2)Sc2ccc3ccccc3c2-c2c(ccc3ccccc23)S1
> 100 µM (inactive)

// query GI50 value for entry CCOC1C=CC(=O)C(CO)O1 (centres undefined)
5.57 µM (inactive)

// query GI50 value for entry COc1cc2oc(-c3ccc(O)cc3O)c(CC=C(C)C)c(=O)c2c(O)c1/C=C/C(C)C
2.75 µM (inactive)

// query GI50 value for entry C1CCN2CC34CC(CC5CCCN(C6CCCC3N6)C54)C2C1 (centres undefined)
> 100 µM (inactive)

// query GI50 value for entry COc1cc(OC)c2c(=O)c(O)c(-c3ccc(OC)c(OC)c3)oc2c1
3.48 µM (inactive)

---

Tested on: HOP-18
measurement protocol: NCI tumour cell line growth inhibition, 48 h
The source made the active and inactive calls. Cut-off read from the data, not from the text of the source: active = GI50 up to about 1.1 µM and inactive = higher.
Exercise: state measured GI50 for each of the compounds provided.

// query GI50 value for entry COc1cccc(NC(=O)/C(CS(=O)(=O)CCC(C(C)=O)C(C)=O)=N/NC(C)(C)C)c1
42.9 µM (inactive)

// query GI50 value for entry C#CC[C@]12CC(=O)CC[C@H]1CC1(C2)OCCO1
> 100 µM (inactive)

// query GI50 value for entry O=C(/C=C\c1ccc(/C=C/C(=O)Nc2cccc(C3=NCCCN3)c2)cc1)Nc1cccc(C2=NCCCN2)c1
> 100 µM (inactive)

// query GI50 value for entry COc1cc(CNc2ccc(C(C)C)cc2)cc(OC)c1OC
34.1 µM (inactive)

// query GI50 value for entry CC(=O)CC[N+](C)(C)C
13.9 µM (inactive)

// query GI50 value for entry COc1ccc(OC)c(/C=C(/C#N)c2ccccc2)c1
> 100 µM (inactive)

// query GI50 value for entry c1ccc(C2CC(c3ccc4ccccc4c3)=Nc3ccccc3S2)cc1 (stereo not drawn)
19.4 µM (inactive)

// query GI50 value for entry COC(=O)CCC(=O)Nc1ccc(Cl)cc1C
> 100 µM (inactive)

// query GI50 value for entry O=C(O)C(Cc1ccccc1)N1C(=O)N/C(=C\c2ccc(F)cc2)C1=O (stereo not drawn)
> 100 µM (inactive)

// query GI50 value for entry CCOC(=O)/C=C1\Nc2ccccc2-n2nnnc21
> 100 µM (inactive)

// query GI50 value for entry CC(=O)OCC1OC(NC(=S)N/N=C2\CC(c3ccccc3)Oc3ccccc32)C(OC(C)=O)C(OC(C)=O)C1OC(C)=O (stereo not drawn)
> 100 µM (inactive)

// query GI50 value for entry O=[N+]([O-])c1nccn1CC(O)CN1CC1 (stereo not drawn)
> 100 µM (inactive)

// query GI50 value for entry CC(Cl)(/C=C/Cl)C(Cl)/C=C/C(Cl)(CCl)CBr (stereo not drawn)
2.52 µM (inactive)

---

Exercise: state measured GI50 for each of the molecules provided.
System: HOP-62
measurement protocol: NCI tumour cell line growth inhibition, 48 h
Activity calls are given as the source filed them. No stated cut-off is given here; in the data, active = GI50 up to about 1.1 µM and inactive = higher.

Field: GI50 (HOP-62). Entry: N#CC(c1nc2ccccc2s1)c1ncnc(Cl)c1[N+](=O)[O-] (stereo unspecified)
28.8 µM (inactive)

Field: GI50 (HOP-62). Entry: CN(C)CC(C)(C)C(/C=C/c1ccccc1)=N\Nc1ccccc1
2.77 µM (inactive)

Field: GI50 (HOP-62). Entry: C=CCC1(Sc2ccccn2)Sc2ccc3ccccc3c2-c2c(ccc3ccccc23)S1
> 100 µM (inactive)

Field: GI50 (HOP-62). Entry: C(CCCCc1nnc(N2CCOCC2)o1)CCCc1nnc(N2CCOCC2)o1
> 100 µM (inactive)

Field: GI50 (HOP-62). Entry: CS/C(=N\c1ccc([N+](=O)[O-])cc1C#N)NC(=O)c1ccccc1
> 100 µM (inactive)

Field: GI50 (HOP-62). Entry: N#CC(c1ccccc1)N(CCc1ccccc1)C(=O)c1ccccc1 (stereo unspecified)
34 µM (inactive)

---

Test system: RPMI-8226
measurement protocol: NCI tumour cell line growth inhibition, 48 h
The source made the active and inactive calls. No stated cut-off is given here; in the data, active = GI50 up to about 1.1 µM and inactive = higher.
Response enum: active, inactive

Status in this test for C=C1CC/C=C(\C)CCC[C@H](C)[C@@H](O)[C@@H]2OC(=O)C(=C)[C@@H]2C[C@H]1O ?
inactive

Status in this test for CSC1(C)CC2C(CC1N1CCCCC1)C2(C)C (centres undefined) ?
inactive

Status in this test for CC[C@H](C)[C@H]1NC(=O)[C@@H](NC(=O)[C@@H](CC(C)C)N(C)C(=O)C2CCCN2C(=O)[C@H](C)O)[C@@H](C)OC(=O)[C@H](Cc2ccccc2)N(C)C(=O)[C@@H]2CCCN2C(=O)[C@H](CC(C)C)NC(=O)[C@@H](C)C(=O)[C@H](C(C)C)OC(=O)C[C@@H]1O (some centres undefined) ?
active

Status in this test for CCC1([N+](=O)[O-])CC2C=CC1C2 (centres undefined) ?
inactive

Status in this test for O=[N+]([O-])c1ccccc1S(=O)(=O)c1ccccc1 ?
inactive

Status in this test for CCO[C@@H]1OC(=O)[C@@](C)(C(C)=O)[C@@H]1C ?
inactive

Status in this test for O=C(Nc1sccc1S(=O)(=O)c1ccc(Cl)cc1)c1ccccc1 ?
inactive

Status in this test for c1ccc(/N=c2/[nH]c3ccccc3s/c2=N/c2ccccc2)cc1 ?
inactive

Status in this test for O=C(Nc1cc(Cl)c(I)c(Cl)c1)C(F)(F)F ?
inactive
